Values from ChEMBL document CHEMBL1135234

# METHOD NOTES: Plasma clearance in dog was determined
# Type: ADME, organism-based, Canis lupus familiaris
# EXPERIMENTAL CONTEXT: read-out: Clp
For each of the compounds below, state its clearance.
One number for each entry, in mL/min/kg.

The examples below pair each entry with its known result.
Cc1cc(C)cc(-c2[nH]c3ccc(C(C)(C)C(=O)N4C5CCC4CC5)cc3c2[C@H](C)CNCCCCc2ccncc2)c1 :: 26.5
Cc1cc(C)cc(-c2[nH]c3ccc(C(C)(C)C(=O)N4CC5CCC4CC5)cc3c2[C@H](C)CNCCc2ccc3nn[nH]c3c2)c1 :: 5
Cc1cc(C)cc(-c2[nH]c3ccc(C(C)(C)C(=O)N4C5CCC4CC5)cc3c2[C@H](C)CNCCCCc2cccc3cnccc23)c1 :: 49.2
Cc1cc(C)cc(-c2[nH]c3ccc(C(C)(C)C(=O)N4C5CCC4CC5)cc3c2[C@H](C)CNCCc2ccc3[nH]nnc3c2)c1 :: 37
Cc1cc(C)cc(-c2[nH]c3ccc(C(C)(C)C(=O)N4C5CCC4CC5)cc3c2[C@H](C)CNCCc2cccc3cnccc23)c1 :: 5.8

Find the measured clearance of `Cc1cc(C)cc(-c2[nH]c3ccc(C(C)(C)C(=O)N4CC5CCC4CC5)cc3c2[C@H](C)CNCCc2ccc3nc(C(=O)O)[nH]c3c2)c1` and report it.
24.6
